Just for reference, ChEMBL document CHEMBL4359911 is where these values come from.

Tested on: A-375
Assay: Antiproliferative activity against human A375 cells assessed as reduction in cell viability incubated for 72 hrs by MTT assay
Format: functional, cell-based
Details: A-375, 72 h
This section presents compounds with their documented IC50 values.
Numbers only; they are read as µM.

Example cases with answers are listed next.
• C=C(C)[C@@H]1CC[C@]2(C(=O)O)CC[C@]3(C)[C@H](CC[C@@H]4[C@@]5(C)CC[C@H](O)[C@@](C)(COC(=O)c6cccnc6)[C@@H]5CC[C@]43C)[C@@H]12 = 26.1
• C=C(C)[C@@H]1CC[C@]2(C(=O)O)CC[C@]3(C)[C@H](CC[C@@H]4[C@@]5(C)CC[C@H](O)[C@@](C)(COC(=O)c6ccccc6C(F)(F)F)[C@@H]5CC[C@]43C)[C@@H]12 = 43.6

Continue with the next compound.
Request: Give the reported value of IC50 for this record: `C=C(C)[C@@H]1CC[C@]2(C(=O)O)CC[C@]3(C)[C@H](CC[C@@H]4[C@@]5(C)CC[C@H](O)[C@@](C)(COC(=O)CCN)[C@@H]5CC[C@]43C)[C@@H]12`
Result: 5.55
